target.entity: HCV NS3 helicase NS3h_1b(con1) (Hepatitis C virus genotype 1b, UniProt Q9WMX2)
Construct: truncated C-terminally His-tagged NS3 proteins lacking the N-terminal protease, called NS3h; His-tag (C); made in house
Sequence (Q9WMX2 1192-1657): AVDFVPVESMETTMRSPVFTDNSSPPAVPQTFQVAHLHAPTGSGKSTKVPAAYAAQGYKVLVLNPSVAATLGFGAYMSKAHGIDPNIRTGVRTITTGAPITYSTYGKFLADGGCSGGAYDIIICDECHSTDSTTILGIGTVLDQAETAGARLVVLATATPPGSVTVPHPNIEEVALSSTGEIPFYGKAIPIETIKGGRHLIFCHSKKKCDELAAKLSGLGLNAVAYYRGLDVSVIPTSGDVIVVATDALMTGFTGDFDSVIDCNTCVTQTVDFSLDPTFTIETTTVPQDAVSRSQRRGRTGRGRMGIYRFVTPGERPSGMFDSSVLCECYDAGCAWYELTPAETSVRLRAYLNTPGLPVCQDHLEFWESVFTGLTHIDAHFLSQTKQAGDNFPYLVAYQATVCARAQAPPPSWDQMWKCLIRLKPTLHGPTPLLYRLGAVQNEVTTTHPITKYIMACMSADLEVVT
protocol.notes: MBHA screen of NCI mechanistic set library at 20 μM (percent inhibition, compound interference)
Type: biochemical
measurement.context: compounds at 20 μM, MBHA with DNA substrate; assay interference calculated with Equation 2
Method: All molecular beacon-based helicase assays (MBHAs) were performed according to known methods (Belon & Frick (2008) supra; Belon & Frick (2009) supra). […] Fluorescence was read before ATP (F0) addition and 30 minutes after ATP was added to 1 mM (F30) using a Tecan Infinite M200 fluorescence microplate reader with excitation and emission wavelengths set to 643 and 670 nm, respectively. […]
result.type: Int.* (Ratio) (Interference)
Hi! Could you send only the number? It should be in Ratio, unit omitted.

Recorded Int.* (Ratio) (Interference) for Cc1ccccc1NC(=O)/C=N/O [Compound 625639] , please?
1.09

One more compound: C/C(NNC(=O)c1ccccc1O)=C1\C=Nc2ccccc2S1 [Compound 635121]
0.92

One more compound: O=C1C(CN2CCCCC2)CCCC1CN1CCCCC1 (centres unmarked) [Compound 39202]
0.91

One more compound: Cc1nc(Cl)c(C)c(Cl)n1 [Compound 40212]
0.95

One more compound: CN(C)CCOc1ccc(I)cc1Cc1ccccc1.Cl [Compound 11930]
1.10

====

target.entity: HCV NS3 helicase NS3h_1b(con1) (Hepatitis C virus genotype 1b, UniProt Q9WMX2)
Construct: truncated C-terminally His-tagged NS3 proteins lacking the N-terminal protease, called NS3h; His-tag (C); made in house
protocol.notes: MBHA screen of NCI mechanistic set library at 20 μM (percent inhibition, compound interference)
Type: biochemical
measurement.context: compounds at 20 μM, MBHA with DNA substrate; calculated from Equation 1
result.type: Inh. (%) (Inhibition)
Hi! Could you send only the number? It should be in %, unit omitted.

Recorded Inh. (%) (Inhibition) for C=Cc1cc(OC)c2c(c1)c(=O)oc1c2cc(OC)c2c(O)ccc(C3OC(C)C(O)C(C)(O)C3O)c21 (centres unmarked) , please?
32.6

One more molecule: COc1cc2c3c(n(C)c(=O)c2cc1OC)-c1cc2c(cc1C3=O)OCO2
23.1

One more molecule: Cl.Cl.Cl.Cl.NCCCNCCCCNCCCN
−8.6

One more molecule: CCCCC(/C=N/N=C(N)N)CC.Cc1cc(O)c(C(C)C)cc1S(=O)(=O)O
2.2

One more molecule: CCS(=O)(=O)Nc1ccc(Nc2c3ccccc3nc3ccccc23)c(OC)c1.CS(=O)(=O)O
3.4

One more molecule: Cc1c(Cl)cccc1NC(=O)CC1Sc2ccccc2NC1=O (centres unmarked)
−17.6

One more molecule: Cc1cc(Cl)ccc1N1C(=O)C(=O)C(c2nc3ccccc3o2)C(=O)C1=O
−10.9

One more molecule: O=S1(=O)OCCOS(=O)(=O)C1Cc1ccccc1
−18.2

====

target.entity: HCV NS3 helicase NS3h_1b(con1) (Hepatitis C virus genotype 1b)
Construct: truncated C-terminally His-tagged NS3 proteins lacking the N-terminal protease, called NS3h; His-tag (C); made in house
protocol.notes: MBHA screen of NCI mechanistic set library at 20 μM (percent inhibition, compound interference)
Format: biochemical
measurement.context: compounds at 20 μM, MBHA with DNA substrate; calculated from Equation 1
Where Inh. (%) (Inhibition) equals or exceeds -10%, the correct label is y; where it does not, the label is n.

Exam item: decide whether the reported Inh. (%) (Inhibition) for COc1ccccc1Cc1nc(-c2ccccc2)nn(C2OC(COC(C)=O)C(OC(C)=O)C(OC(C)=O)C2OC(C)=O)c1=S (stereo not shown) [Compound 625873] is at least -10%.
n

One more compound: C=CC(=O)N1C/C(=C\c2ccc([N+](=O)[O-])cc2)C(=O)/C(=C/c2ccc([N+](=O)[O-])cc2)C1 [Compound 687852]
n

One more compound: COC(=O)c1ccccc1NC(=O)C(=O)CC(=O)c1ccccc1NC1=CC(=O)C(=O)c2ccccc21 [Compound 641240]
n

One more compound: Cc1nc2c(nc1C)C(=O)c1ccccc1C2=O [Compound 602617]
y

One more compound: Cc1c(N)nc([C@H](CC(N)=O)NC[C@H](N)C(N)=O)nc1C(=O)N[C@H](C(=O)N[C@H](C)[C@@H](O)[C@H](C)C(=O)N[C@H](C(=O)NCCc1nc(-c2nc(C(=O)NCCC[S+](C)C)cs2)cs1)[C@@H](C)O)[C@@H](OC1OC(CO)C(O)C(O)C1OC1OC(CO)C(O)C(OC(N)=O)C1O)c1cnc[nH]1 (stereo partly shown) [Compound 125066]
y

One more compound: OC(CBr)C(O)C(O)C(O)CBr (stereo not shown) [Compound 616232]
y

One more compound: CC(C)=CC1C(C(=O)O)C1(C)C (stereo not shown) [Compound 11779]
y
